We begin with a simple list: items and their reported intrinsic activity at MC4-R in a normal system.
Biological target: MC4-R (Homo sapiens, UniProt P32245)
Sequence (P32245 whole entry): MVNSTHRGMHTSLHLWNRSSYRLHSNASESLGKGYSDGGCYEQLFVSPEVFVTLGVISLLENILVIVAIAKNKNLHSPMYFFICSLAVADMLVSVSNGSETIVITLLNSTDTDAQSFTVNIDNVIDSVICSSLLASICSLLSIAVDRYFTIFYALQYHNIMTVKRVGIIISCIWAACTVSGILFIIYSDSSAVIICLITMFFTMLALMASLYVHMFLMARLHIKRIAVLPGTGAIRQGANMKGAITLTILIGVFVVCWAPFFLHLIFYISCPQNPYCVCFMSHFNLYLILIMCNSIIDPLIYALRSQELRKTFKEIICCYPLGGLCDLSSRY
Assay: cAMP functional activity assay in HEK-293 cells, normal system
Type: cell-based
Parameters: expressed in transfected cells; host or cells: HEK-293
Details: normal receptor density system; NDP-α-MSH = 1.0
Provide a numeric answer; units are not to be included.

Before answering, review these 2 worked examples.
C[C@@H]1CN(C(=O)[C@H](N)Cc2ccc3ccccc3c2)[C@@H](CCCNC(=N)N)CN1C(=O)CCCc1c[nH]c2ccccc12 [Example 7]: 0.4
N=C(N)NCCC[C@H]1CN(CCc2ccc3ccccc3c2)CCN1C(=O)[C@H](N)Cc1ccc(Cl)cc1Cl [Example 17]: 0.4

Proceeding to the next compound to report its intrinsic activity at MC4-R in a normal system.
Asked: Given the compound CC(=O)N[C@H](Cc1ccc(C)cc1C)C(=O)N1C[C@@H](C)N(C(=O)Cc2ccc3ccccc3c2)C[C@@H]1CCCNC(=N)N [Example 30] , write its reported intrinsic activity at MC4-R in a normal system.
Given back: 0.4

###

Consider the following compounds and their measured inhibition at 1 µM readings.
Target: MC4-R (Homo sapiens)
Assay: Competitive inhibition assay using [I^125]-NDP-α-MSH, hMC4-R membranes
Assay type: binding
Design: host or cells: TREx-293 (HEK-293 stably expressing Tet repressor)
Settings: 1 μM test compound; read-out: Inhibition at 1 μM (NDP-α-MSH) In Normal System, MC4-R
Positions of bridges follow the written chain, without caps; N, C: chain ends. Non-standard residues stand in square brackets, D forms with d. Residues, ends and D or L forms follow the SMILES beside them. *: point of attachment. dPhe(4-Cl) = N[C@H](Cc1ccc(Cl)cc1)C(=O)O; 1Nal = N[C@@H](Cc1cccc2ccccc12)C(=O)O; Nle = CCCC[C@H](N)C(=O)O; Ahp = NCCCCCCC(=O)O; Bn = c1ccc(C*)cc1
Field format: number, assumed %, no unit text.

Known inhibition at 1 µM results, listed for orientation:
Cc1[nH]c2ccccc2c1CCN1C[C@H](CCCNC(=N)N)N(C(=O)[C@H](N)Cc2ccc3ccccc3c2)C[C@H]1C: 95
C[C@@H]1CN(C(=O)[C@H](N)Cc2ccc(Cl)cc2)[C@@H](CCCNC(=N)N)CN1CCc1ccc2ccccc2c1: 97
Cc1ccc(C[C@@H](N)C(=O)N2C[C@@H](C)N(CCc3ccc4ccccc4c3)C[C@@H]2CCCNC(=N)N)c(C)c1: 100
CCCC[C@H](NC(C)=O)C(=O)N[C@H]1CC(=O)NCCCC[C@@H](C(=O)NCC)NC(=O)[C@H](Cc2cccc3ccccc23)NC(=O)[C@H](CCCNC(=N)N)NC(=O)[C@@H](Cc2ccccc2)NC(=O)[C@H](Cc2c[nH]c3ccccc23)NC1=O [Example 38] (Ac-[Nle]DW[dF]R[1Nal]K-NHEt; lactam 2-7): 100

Okay, next one:
Asked: Supply reported inhibition at 1 µM belonging to this compound: N=C(N)NCCC[C@H](NC(=O)[C@@H](Cc1ccc(Cl)cc1)NC(=O)[C@H](COCc1ccccc1)NC(=O)CCCCCCN)C(=O)N[C@@H](Cc1c[nH]c2ccccc12)C(=O)N[C@@H](CC(=O)O)C(=O)N[C@@H](Cc1ccccc1)C(N)=O [Example 14] (H-[Ahp]S(Bn)[dPhe(4-Cl)]RWDF-NH2)
Given back: 99

###

Molecular target: MC1-R (Mus musculus, UniProt Q01727)
Construct: B-16 mouse melanoma cells (containing MC1-R); endogenous in cells
Sequence (Q01727 whole entry): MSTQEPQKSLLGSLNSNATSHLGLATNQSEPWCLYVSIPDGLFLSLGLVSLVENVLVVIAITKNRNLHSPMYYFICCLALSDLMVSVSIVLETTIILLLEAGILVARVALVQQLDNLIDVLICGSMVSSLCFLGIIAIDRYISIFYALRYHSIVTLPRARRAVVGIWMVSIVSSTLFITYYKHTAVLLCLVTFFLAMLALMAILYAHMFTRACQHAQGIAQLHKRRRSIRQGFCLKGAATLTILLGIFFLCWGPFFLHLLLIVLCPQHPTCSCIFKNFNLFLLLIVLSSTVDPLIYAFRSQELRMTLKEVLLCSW
Test: Competitive inhibition assay using [I^125]-NDP-α-MSH, B-16 mouse melanoma cell membranes
Assay type: binding
Conditions: read-out: Ki (nM) (NDP-α-MSH) In Normal System, MC1-R
valueKind: Ki (nM)
Write it as a number; the unit nM goes unstated.

Example entries and their recorded answers appear below.
Cc1ccc(C[C@@H](N)C(=O)N2C[C@@H](C)N(CCc3ccc4ccccc4c3)C[C@@H]2CCCNC(=N)N)c(C)c1: 1230
C[C@@H]1CN(C(=O)[C@H](N)Cc2ccc3ccccc3c2)[C@@H](CCCNC(=N)N)CN1C(=O)Cc1c[nH]c2ccccc12: 315
CC(=O)N[C@H](Cc1ccc(C)cc1C)C(=O)N1C[C@@H](C)N(C(=O)Cc2ccc3ccccc3c2)C[C@@H]1CCCNC(=N)N: 1880

Asked: Identify Ki associated with the compound Cc1ccc(CCN2C[C@H](CCCNC(=N)N)N(C(=O)[C@H](N)Cc3ccc4ccccc4c3)C[C@H]2C)cc1
Given back: 135

###

Each entry below carries its recorded inhibition at 1 µM.
Target: MC1-R (Mus musculus, UniProt Q01727)
Construct: B-16 mouse melanoma cells (containing MC1-R); endogenous in cells
Test: Competitive inhibition assay using [I^125]-NDP-α-MSH, B-16 mouse melanoma cell membranes
Type: binding
Details: 1 μM test compound; read-out: Inhibition at 1 μM (NDP-α-MSH) In Normal System, MC1-R
Entry rule: numbers only, all in %.

Asked: Check the records and state inhibition at 1 µM for Cc1[nH]c2ccccc2c1CCN1C[C@H](CCCNC(=N)N)N(C(=O)[C@H](N)Cc2ccc3ccccc3c2)C[C@H]1C
Given back: 73

Asked: Determine from records and report inhibition at 1 µM for N=C(N)NCCC[C@H]1CN(CCc2ccc3ccccc3c2)CCN1C(=O)[C@H](N)Cc1ccc(Cl)cc1Cl
Given back: 6

Asked: Please give the documented inhibition at 1 µM of N=C(N)NCCC[C@H]1C(=O)N(CCc2c[nH]c3ccccc23)CCN1C(=O)[C@H](N)Cc1ccc(Cl)cc1Cl
Given back: 7
